Values from patent US9513294B2

# assay-notes: Absorbance and fluorescence emission spectra (SpectraMax M2)
# Assay type: physicochemical
# experimental-parameters: MK library, Table 5
Reported λmax Absorp. values follow for various compounds
experimental-readout: λmax Absorp. (nm)

compound: CCCC(C)c1cn(-c2ccc3n2[B-](F)(F)[N+]2=C(N4CCc5ccccc5C4)C=CC2=C3c2ccc(N)cc2)nn1 (stereo not shown)
readout-unit: nm
measurement: 479
--
compound: Nc1ccc(C2=C3C=CC(NCc4cc(F)cc(F)c4)=[N+]3[B-](F)(F)n3c2ccc3-n2cc(CO)nn2)cc1
readout-unit: nm
measurement: 470
--
compound: CCCC(C)c1cn(-c2ccc3n2[B-](F)(F)[N+]2=C(N4CCCC4)C=CC2=C3c2ccc(N)cc2)nn1 (stereo not shown)
readout-unit: nm
measurement: 471
--
compound: CCCC(C)c1cn(-c2ccc3n2[B-](F)(F)[N+]2=C(NCc4cc(F)cc(F)c4)C=CC2=C3c2ccc(N)cc2)nn1 (stereo not shown)
readout-unit: nm
measurement: 476
--
compound: CCCCCC(O)c1cn(-c2ccc3n2[B-](F)(F)[N+]2=C(N4CCCC4)C=CC2=C3c2ccc(N)cc2)nn1 (stereo not shown)
readout-unit: nm
measurement: 470
--
compound: CN(Cc1ccccc1)C1=[N+]2C(=C(c3ccc(N)cc3)c3ccc(-n4cc(C5CCCC5)nn4)n3[B-]2(F)F)C=C1
readout-unit: nm
measurement: 477
--
compound: CN(Cc1ccccc1)Cc1cn(-c2ccc3n2[B-](F)(F)[N+]2=C(NCc4cc(F)cc(F)c4)C=CC2=C3c2ccc(N)cc2)nn1
readout-unit: nm
measurement: 473

----------
# assay-notes: Absorbance and fluorescence emission spectra (SpectraMax M2)
# Assay type: physicochemical
# experimental-parameters: MKCA compound library; fluorescence emission maximum
experimental-readout: λmax Emission (nm)

compound: CN(Cc1ccccc1)C1=[N+]2C(=C(c3ccc(NC(=O)CCl)cc3)c3ccc(-n4cc(C5CC5)nn4)n3[B-]2(F)F)C=C1 [MKCA195-4]
measurement: 575 nm

compound: O=C(CCl)Nc1ccc(C2=C3C=CC(N4CCCC4)=[N+]3[B-](F)(F)n3c2ccc3-n2cc(CO)nn2)cc1 [MKCA215-70]
measurement: 568 nm

compound: CCOc1ccccc1CNC1=[N+]2C(=C(c3ccc(NC(=O)CCl)cc3)c3ccc(-n4cc(C5CCCC5)nn4)n3[B-]2(F)F)C=C1 [MKCA103-5]
measurement: 563 nm

compound: CCCC(C)c1cn(-c2ccc3n2[B-](F)(F)[N+]2=C(N4CCCC4)C=CC2=C3c2ccc(NC(=O)CCl)cc2)nn1 (stereo not shown) [MKCA215-3]
measurement: 569 nm

compound: O=C(CCl)Nc1ccc(C2=C3C=CC(N4CCCC4)=[N+]3[B-](F)(F)n3c2ccc3-n2cc(C3CC3)nn2)cc1 [MKCA215-4]
measurement: 570 nm

compound: CC1CN(C2=[N+]3C(=C(c4ccc(NC(=O)CCl)cc4)c4ccc(-n5cc(C6CCCC6)nn5)n4[B-]3(F)F)C=C2)CC(C)O1 (stereo not shown) [MKCA20-5]
measurement: 581 nm

compound: CC(C)Cc1cn(-c2ccc3n2[B-](F)(F)[N+]2=C(N4CCCC4)C=CC2=C3c2ccc(NC(=O)CCl)cc2)nn1 [MKCA215-43]
measurement: 570 nm

compound: COc1ccc(OC)c(CNC2=[N+]3C(=C(c4ccc(NC(=O)CCl)cc4)c4ccc(-n5cc(CN(C)Cc6ccccc6)nn5)n4[B-]3(F)F)C=C2)c1 [MKCA181-18]
measurement: 563 nm

compound: CCCC(C)c1cn(-c2ccc3n2[B-](F)(F)[N+]2=C(N(C)Cc4ccccc4)C=CC2=C3c2ccc(NC(=O)CCl)cc2)nn1 (stereo not shown) [MKCA195-3]
measurement: 577 nm

compound: CN(Cc1ccccc1)Cc1cn(-c2ccc3n2[B-](F)(F)[N+]2=C(N(C)Cc4ccccc4)C=CC2=C3c2ccc(NC(=O)CCl)cc2)nn1 [MKCA195-18]
measurement: 580 nm

compound: O=C(CCl)Nc1ccc(C2=C3C=CC(NCc4cc(F)cc(F)c4)=[N+]3[B-](F)(F)n3c2ccc3-n2cc(C3CC3)nn2)cc1 [MKCA412-4]
measurement: 563 nm

compound: CCCCCC(O)c1cn(-c2ccc3n2[B-](F)(F)[N+]2=C(N4CC(C)OC(C)C4)C=CC2=C3c2ccc(NC(=O)CCl)cc2)nn1 (stereo not shown) [MKCA20-69]
measurement: 586 nm

compound: CC1CN(C2=[N+]3C(=C(c4ccc(NC(=O)CCl)cc4)c4ccc(-n5cc(CN(C)Cc6ccccc6)nn5)n4[B-]3(F)F)C=C2)CC(C)O1 (stereo not shown) [MKCA20-18]
measurement: 585 nm

----------
Reported λmax Em. (nm) values follow for various compounds
# assay-notes: Absorbance and fluorescence emission spectra (SpectraMax M2)
# Format: physicochemical
# experimental-parameters: MKAC compound library; fluorescence emission maximum
# Method: BDC-8 (Blue): absorbance λmax=473 nm, emission λmax=585 nm; MK101-8 (Green): absorbance λmax=474 nm, emission λmax=563 nm; MKHA374-48 (Yellow): absorbance λmax=468 nm, λem=557 nm. The corresponding spectra of a reported BODIPY (BD-27; Red) are also included for comparison: absorbance λmax=551 nm, emission λmax=568 nm. […] ^1H-NMR, ^19F-NMR and ^13C-NMR spectra were recorded on Bruker ACF300 (300 MHz), DPX300 (300 MHz) and AMX500 (500 MHz) spectrometers. […]

compound: CC(=O)Nc1ccc(C2=C3C=CC(N4CCCC4)=[N+]3[B-](F)(F)n3c2ccc3-n2cc(CC3CCCCC3)nn2)cc1
λmax Em. (nm): 568

compound: CC(=O)Nc1ccc(C2=C3C=CC(N4CC(C)OC(C)C4)=[N+]3[B-](F)(F)n3c2ccc3-n2cc(C3CCCC3)nn2)cc1 (stereo not drawn)
λmax Em. (nm): 580

compound: COc1ccc(OC)c(CNC2=[N+]3C(=C(c4ccc(NC(C)=O)cc4)c4ccc(-n5cc(CO)nn5)n4[B-]3(F)F)C=C2)c1
λmax Em. (nm): 559

compound: CCCc1cn(-c2ccc3n2[B-](F)(F)[N+]2=C(N4CCCC4)C=CC2=C3c2ccc(NC(C)=O)cc2)nn1
λmax Em. (nm): 566

compound: CC(=O)Nc1ccc(C2=C3C=CC(NCc4cc(F)cc(F)c4)=[N+]3[B-](F)(F)n3c2ccc3-n2cc(CC3CCCCC3)nn2)cc1
λmax Em. (nm): 562

compound: CCOc1ccccc1CNC1=[N+]2C(=C(c3ccc(NC(C)=O)cc3)c3ccc(-n4cc(CCc5ccccc5)nn4)n3[B-]2(F)F)C=C1
λmax Em. (nm): 562

----------
# assay-notes: Absorbance and fluorescence emission spectra (SpectraMax M2)
# Format: physicochemical
# experimental-parameters: MKCA compound library; fluorescence emission maximum

compound: CC(C)Cc1cn(-c2ccc3n2[B-](F)(F)[N+]2=C(N(C)Cc4ccccc4)C=CC2=C3c2ccc(NC(=O)CCl)cc2)nn1
λmax Emission (nm): 575

compound: O=C(CCl)Nc1ccc(C2=C3C=CC(N4CCCC4)=[N+]3[B-](F)(F)n3c2ccc3-n2cc(CCc3ccccc3)nn2)cc1
λmax Emission (nm): 573

compound: CCCc1cn(-c2ccc3n2[B-](F)(F)[N+]2=C(NCc4cc(OC)ccc4OC)C=CC2=C3c2ccc(NC(=O)CCl)cc2)nn1
λmax Emission (nm): 563

compound: COc1ccc(OC)c(CNC2=[N+]3C(=C(c4ccc(NC(=O)CCl)cc4)c4ccc(-n5cc(CO)nn5)n4[B-]3(F)F)C=C2)c1
λmax Emission (nm): 562

compound: CCCCCC(O)c1cn(-c2ccc3n2[B-](F)(F)[N+]2=C(N4CCc5ccccc5C4)C=CC2=C3c2ccc(NC(=O)CCl)cc2)nn1 (stereo not drawn)
λmax Emission (nm): 586

compound: CC1CN(C2=[N+]3C(=C(c4ccc(NC(=O)CCl)cc4)c4ccc(-n5cc(C6CC6)nn5)n4[B-]3(F)F)C=C2)CC(C)O1 (stereo not drawn)
λmax Emission (nm): 581

----------
Reported λmax Emission values follow for various molecules
# assay-notes: Absorbance and fluorescence emission spectra (SpectraMax M2)
# Type: physicochemical
# experimental-parameters: BDCCA library, Table 4
experimental-readout: λmax Emission

molecule: O=C(CCl)Nc1ccc(C2=C3C=CC(N4CCCCC4)=[N+]3[B-](F)(F)n3c2ccc3-n2cc(-c3ccc(F)cc3F)nn2)cc1 [BDCCA-26]
measurement: 568 nm

molecule: O=C(CCl)Nc1ccc(C2=C3C=CC(N4CCCCC4)=[N+]3[B-](F)(F)n3c2ccc3-n2cc(-c3ccccc3)nn2)cc1 [BDCCA-9]
measurement: 577 nm

molecule: O=C(CCl)Nc1ccc(C2=C3C=CC(N4CCCCC4)=[N+]3[B-](F)(F)n3c2ccc3-n2cc(-c3cc(C(F)(F)F)cc(C(F)(F)F)c3)nn2)cc1 [BDCCA-30]
measurement: 556 nm

molecule: O=C(CCl)Nc1ccc(C2=C3C=CC(N4CCCCC4)=[N+]3[B-](F)(F)n3c2ccc3-n2cc(CC3CCCC3)nn2)cc1 [BDCCA-7]
measurement: 590 nm

molecule: CCCCc1cn(-c2ccc3n2[B-](F)(F)[N+]2=C(N4CCCCC4)C=CC2=C3c2ccc(NC(=O)CCl)cc2)nn1 [BDCCA-42]
measurement: 577 nm

molecule: O=C(CCl)Nc1ccc(C2=C3C=CC(N4CCCCC4)=[N+]3[B-](F)(F)n3c2ccc3-n2cc(-c3ccc(F)c(F)c3)nn2)cc1 [BDCCA-16]
measurement: 581 nm

molecule: COc1cccc(-c2cn(-c3ccc4n3[B-](F)(F)[N+]3=C(N5CCCCC5)C=CC3=C4c3ccc(NC(=O)CCl)cc3)nn2)c1 [BDCCA-27]
measurement: 552 nm

molecule: COc1cc(OC)cc(-c2cn(-c3ccc4n3[B-](F)(F)[N+]3=C(N5CCCCC5)C=CC3=C4c3ccc(NC(=O)CCl)cc3)nn2)c1 [BDCCA-14]
measurement: 589 nm

molecule: CN(C)Cc1cn(-c2ccc3n2[B-](F)(F)[N+]2=C(N4CCCCC4)C=CC2=C3c2ccc(NC(=O)CCl)cc2)nn1 [BDCCA-2]
measurement: 586 nm

molecule: CCCCCCCCCCc1cn(-c2ccc3n2[B-](F)(F)[N+]2=C(N4CCCCC4)C=CC2=C3c2ccc(NC(=O)CCl)cc2)nn1 [BDCCA-49]
measurement: 575 nm

molecule: CCCCc1ccc(-c2cn(-c3ccc4n3[B-](F)(F)[N+]3=C(N5CCCCC5)C=CC3=C4c3ccc(NC(=O)CCl)cc3)nn2)cc1 [BDCCA-12]
measurement: 552 nm

molecule: CC(C)(C)c1cn(-c2ccc3n2[B-](F)(F)[N+]2=C(N4CCCCC4)C=CC2=C3c2ccc(NC(=O)CCl)cc2)nn1 [BDCCA-1]
measurement: 581 nm

molecule: CC(C)(C)c1ccc(-c2cn(-c3ccc4n3[B-](F)(F)[N+]3=C(N5CCCCC5)C=CC3=C4c3ccc(NC(=O)CCl)cc3)nn2)cc1 [BDCCA-11]
measurement: 587 nm

molecule: O=C(CCl)Nc1ccc(C2=C3C=CC(N4CCCCC4)=[N+]3[B-](F)(F)n3c2ccc3-n2cc(C3CCCCC3)nn2)cc1 [BDCCA-6]
measurement: 555 nm
